test.target: CnArg1 (IP3-4K from C. neoformans) (Cryptococcus neoformans var. grubii, UniProt J9W3G0)
Sequence (J9W3G0 entry or part of it): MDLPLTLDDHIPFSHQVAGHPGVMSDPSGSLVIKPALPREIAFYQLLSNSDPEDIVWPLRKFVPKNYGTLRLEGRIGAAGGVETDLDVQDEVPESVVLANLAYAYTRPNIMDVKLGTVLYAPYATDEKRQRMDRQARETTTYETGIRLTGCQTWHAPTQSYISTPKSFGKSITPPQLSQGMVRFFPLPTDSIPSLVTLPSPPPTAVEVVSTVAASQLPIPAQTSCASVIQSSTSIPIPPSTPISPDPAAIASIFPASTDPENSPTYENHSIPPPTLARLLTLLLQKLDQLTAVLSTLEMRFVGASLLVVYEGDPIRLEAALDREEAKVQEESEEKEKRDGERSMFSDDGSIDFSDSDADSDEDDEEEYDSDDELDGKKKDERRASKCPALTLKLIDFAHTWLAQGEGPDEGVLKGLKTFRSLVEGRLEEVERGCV
protocol.description: Kinase-Glo enzyme inhibition assay, recombinant CnArg1
assay.setup: 10 µM ATP, 50 µM IP3, 2.5 ng/µL enzyme, 10 min, room temperature, 5% DMSO; mean ± SEM
Please use yes for IC50 under 30 µM and no for everything else, ties included.

[Q] API: query returns whether the compound falls strictly under 30 µM in IC50. Query: COc1ccccc1CNc1nc(NCc2ccccc2)c2nc[nH]c2n1 [Compound 24]
[A] yes

[Q] Would you kindly verify if IC50 of O=C(O)c1cccc(CNc2nc(NCc3ccccc3)c3nc[nH]c3n2)c1 [Compound 17] is strictly less than 30 µM?
[A] no

[Q] Does COCCNc1nc(Nc2ccc(O)cc2)nc2[nH]cnc12 [Compound 37] have IC50 strictly under 30 µM?
[A] yes

[Q] Hello, I'm reviewing records and need to know if IC50 of COCCNc1nc(NCc2cccc(I)c2)nc2[nH]cnc12 [Compound 32] is below 30 µM. Could you check?
[A] yes

[Q] Is 30 µM strictly greater than the compound's reported IC50? compound: COCCNc1nc(NCc2cccc(C(=O)OC)c2)nc2[nH]cnc12 [Compound 33]
[A] no

[Q] Is it true that IC50 reported for FC(F)(F)c1cccc(CNc2nc(NCc3ccccc3)c3nc[nH]c3n2)c1 [Compound 9] is less than 30 µM?
[A] yes

[Q] Please indicate whether the reported IC50 of COCCNc1nc(NCc2cccc(Br)c2)nc2[nH]cnc12 [Compound 31] is strictly below 30 µM.
[A] yes

[Q] Field: below-cutoff. Rule: recorded IC50 strictly less than 30 µM. Subject: c1ccc(CNc2nc(NCC3CCOCC3)nc3[nH]cnc23)cc1 [Compound 27]
[A] no

[Q] Problem: For the compound COCCNc1nc(NCc2ccccc2)c2nc[nH]c2n1 [Compound 29] , is IC50 under 30 µM?
[A] no

* * *

test.target: CnArg1 (IP3-4K from C. neoformans) (Cryptococcus neoformans var. grubii, UniProt J9W3G0)
protocol.description: Kinase-Glo enzyme inhibition assay, recombinant CnArg1
assay.setup: 10 µM ATP, 50 µM IP3, 2.5 ng/µL enzyme, 10 min, room temperature, 5% DMSO; mean ± SEM
Rule: IC50 below 70 µM gives y, anything at or above gives n.

[Q] Determine whether this molecule shows IC50 lower than 70 µM (ties excluded): FC(F)(F)c1cccc(CNc2nc(NCc3cccnc3)c3nc[nH]c3n2)c1
[A] y

[Q] hey, is IC50 for COCCNc1nc(NCc2ccc(OC)cc2)nc2[nH]cnc12 lower than 70 µM or not?
[A] y

[Q] Given OCCNc1nc(NCc2ccccc2)c2[nH]cnc2n1 , is recorded IC50 strictly lower than 70 µM?
[A] n

[Q] Problem: For the molecule COC(=O)c1cccc(CNc2nc(NCc3ccccc3)c3nc[nH]c3n2)c1 , is IC50 under 70 µM?
[A] y

* * *

Task for the reader: assign each of the following compounds its reported HsIPMK/CnArg1 IC50 ratio.
System: CnArg1 (IP3-4K from C. neoformans)
protocol.description: Kinase-Glo enzyme inhibition assay, recombinant CnArg1
Assay type: biochemical
assay.setup: selectivity, ratio higher than 1 = more selective for CnArg1
// response body must contain only the number

Please fill in: HsIPMK/CnArg1 IC50 ratio reported for FC(F)(F)c1cccc(CNc2nc(NCc3cccnc3)c3nc[nH]c3n2)c1 [Compound 43] = 2.8

Measured HsIPMK/CnArg1 IC50 ratio of FC(F)(F)c1cccc(CNc2nc(NC3CCOCC3)c3nc[nH]c3n2)c1 [Compound 42] : 3.7

HsIPMK/CnArg1 IC50 ratio recorded for this compound, COCCNc1nc(NCCc2ccc(OC)cc2)nc2[nH]cnc12 [Compound 39] , is 0.9

Data point: Fc1ccc(CNc2nc(NCc3ccccc3)c3nc[nH]c3n2)cc1 [Compound 23] ; HsIPMK/CnArg1 IC50 ratio = 2.6
